// provenance: patent US8030354B2

What pEC50 was measured for each of the following?
molecular target: GPR40 (Homo sapiens); assay: Cell-based aequorin assay (CHO cells stably expressing GPR40 and aequorin); design: expressed in transfected cells; host or cells: CHO cells stably transfected with GPR40 and aequorin; details: activation of human GPR40, CHO cells, 0.01% HSA
Sequence (O14842 whole entry): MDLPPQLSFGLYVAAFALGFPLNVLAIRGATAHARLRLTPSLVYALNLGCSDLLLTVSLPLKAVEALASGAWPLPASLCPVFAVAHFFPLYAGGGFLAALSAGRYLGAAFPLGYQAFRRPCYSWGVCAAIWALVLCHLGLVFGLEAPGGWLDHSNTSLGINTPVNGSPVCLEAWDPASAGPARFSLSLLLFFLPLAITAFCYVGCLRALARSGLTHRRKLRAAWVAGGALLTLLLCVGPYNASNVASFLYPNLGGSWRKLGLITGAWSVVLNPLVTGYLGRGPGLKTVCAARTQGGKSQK
pEC50: −log10 of the molar value.

Example cases with answers are listed next.
[
  {
    "Molecule": "COc1cccc(-c2ccc(COc3cccc([C@@H](CC(=O)O)C(C)C)c3)cc2C(C)(C)C)c1 (single isomer, unassigned)",
    "Result": "5.00 to 6.00"
  },
  {
    "Molecule": "CCC(CC(=O)O)c1cc(F)cc(OCc2cc(C3CCCC3(C)C)c(-c3cc(OC)ccc3F)cc2F)c1 (single isomer, unassigned)",
    "Result": "6.00 to 7.00"
  },
  {
    "Molecule": "CC[C@H](CC(=O)O)c1cccc(OCc2ccc(-c3cc(C(F)F)ccc3F)c(C3=CCCC3(C)C)c2)c1F (single isomer, unassigned)",
    "Result": "5.00 to 6.00"
  }
]

Required: pEC50, one value per molecule below.
1. CC[C@H](CC(=O)O)c1cccc(OCc2ccc(-c3cc(OC)ccc3F)c(C3CCCCCC3)c2)c1 (single isomer, unassigned)
2. COc1ccc(F)c(-c2ccc(COc3cccc(C(CC(=O)O)C4CC4)c3)cc2C2=CCCCC2(C)C)c1 (single isomer, unassigned)
3. COc1ccc(F)c(-c2ccc(COc3cccc([C@@H](CC(=O)O)C4CC4)c3)cc2C2N(C)CCCC2(C)C)c1 (single isomer, unassigned)
4. CC1(C)CCC[C@@H]1c1cc(COc2cccc([C@@H](CC(=O)O)C3CC3)c2)ccc1-c1cc(OCC(F)(F)F)ccc1F (single isomer, unassigned)
5. CSc1cccc(-c2ccc(COc3cccc(C(C)CC(=O)O)c3)cc2C(C)(C)C)c1 (single isomer, unassigned)

Result:
["6.00 to 7.00", "6.00 to 7.00", "6.00 to 7.00", "5.00 to 6.00", "5.00 to 6.00"]

Required: pEC50, one value per molecule below.
1. CCC(CC(=O)O)c1cccc(OCc2ccc(-c3cc(OC)ccc3F)c(C3CCCC3(C)C)c2)c1 (single isomer, unassigned) [Example 98.2]
2. CCC(CC(=O)O)c1cccc(OCc2ccc(-c3cc(OC)ccc3F)c(C(C)C(C)(C)C)c2)c1F (single isomer, unassigned)
3. COc1ccc(F)c(-c2ccc(COc3cccc([C@@H](CC(=O)O)CC4CC4)c3)cc2[C@H]2OCCC2(C)C)c1 (single isomer, unassigned)
4. CC[C@H](CC(=O)O)c1cccc(OCc2ccc(-c3cc(OC)ccc3F)c(C(C)(C)C)c2)c1 (single isomer, unassigned)
5. COC(c1cc(COc2cccc(C(CC(=O)O)C3CC3)c2)ccc1-c1ccccc1F)C(C)(C)C (single isomer, unassigned)
6. COc1cc(-c2ccc(COc3cccc(C(CC(=O)O)C4CC4)c3)cc2C2=CCCCC2(C)C)c(F)cn1 (single isomer, unassigned)
7. CCC=C[C@H](CC(=O)O)c1cccc(OCc2ccc(-c3cc(OC)ccc3F)c(C(C)(C)C)c2)c1 (single isomer, unassigned)

Result:
["5.00 to 6.00", "6.00 to 7.00", "6.00 to 7.00", "6.00 to 7.00", "6.00 to 7.00", "7.00 to 8.00", "6.00 to 7.00"]

Required: pEC50, one value per molecule below.
1. COc1ccc(F)c(-c2ccc(COc3cccc(C(CC(=O)O)CC4CC4)c3)cc2C(OC)C(C)(C)C)c1 (single isomer, unassigned)
2. COc1ccc(F)c(-c2ccc(COc3cccc(C(CC(=O)O)C4CCC4)c3)cc2C(C)(C)C)c1 (single isomer, unassigned)

Result:
1: 7.00 to 8.00; 2: 6.00 to 7.00
